// provenance: PubChem BioAssay (NCI)

// values below are reported GI50
tested on: PC-3 prostate; experiment: NCI tumour cell line growth inhibition, 48 h

Worked examples, 3 molecules total:
>>> df
                                   molecule      result
0  O=C(O)c1ccc(N/C=C2\C(=O)c3ccccc3OC2O)cc1O (centres undefined)  31.6 µg/mL
1  COc1ccccc1C#Cc1ccccc1C#CCCCCCC#Cc1ccccc1C#Cc1ccccc1OC    > 100 µM
2  COc1ccccc1/C=N\N=C(N/N=C/c1ccccc1OC)N/N=C/c1ccccc1OC     2.77 µM

Kindly review the next molecule as well.
Prompt line: Consider the molecule shown here: Cn1cc(-c2cnc3ccc4ccc(CS(=O)(=O)NCc5ccccn5)cc4c(=O)c3c2)cn1 What is its recorded GI50?
Response line: 31.3 µM
